Just for reference, the NIST ThermoML archive (doi:10.1016/j.fluid.2009.12.002) is where these values come from.

# condition notes: 343.15 K; Liquid; isothermal bubble-point pressure

[
  {
    "compound": "Cc1ccccc1C",
    "vapor or sublimation pressure [kPa]": 8.47
  },
  {
    "compound": "Cc1cccc(C)c1",
    "vapor or sublimation pressure [kPa]": 10.17
  },
  {
    "compound": "CNC=O [N-methylformamide]",
    "vapor or sublimation pressure [kPa]": 0.67
  },
  {
    "compound": "Cc1ccc(C)cc1",
    "vapor or sublimation pressure [kPa]": 10.5
  }
]

---

vapor or sublimation pressure overview
# condition notes: 353.15 K; Liquid; isothermal bubble-point pressure

[
  {
    "compound": "Cc1cccc(C)c1",
    "unit": "kPa",
    "vapor or sublimation pressure": 15.12
  },
  {
    "compound": "Cc1ccccc1C",
    "unit": "kPa",
    "vapor or sublimation pressure": 12.71
  },
  {
    "compound": "Cc1ccc(C)cc1",
    "unit": "kPa",
    "vapor or sublimation pressure": 15.61
  },
  {
    "compound": "CNC=O [N-methylformamide]",
    "unit": "kPa",
    "vapor or sublimation pressure": 1.15
  }
]

---

Parameter: mass density. Scope: all listed entries.
# condition notes: 353.15 K; Liquid; Vibrating tube method

[
  {
    "compound": "Cc1cccc(C)c1",
    "unit": "kg/m3",
    "mass density": 811.602
  },
  {
    "compound": "Cc1ccc(C)cc1",
    "unit": "kg/m3",
    "mass density": 807.649
  },
  {
    "compound": "Cc1ccccc1C",
    "unit": "kg/m3",
    "mass density": 828.528
  },
  {
    "compound": "CNC=O [N-methylformamide]",
    "unit": "kg/m3",
    "mass density": 949.98
  }
]
